- particulars: in n-butanol, 307.55 K
measured.property: solubility (mole fraction)
# print the numeric value only

Field solubility (mole fraction) (entry Cl.N=C(N)Nc1ccc(C(=O)O)cc1 ) reads 0.00163

---

- particulars: in methanol, 324.85 K
measured.property: solubility (mole fraction)
Just the number.

Kindly note the recorded solubility (mole fraction) for Cl.N=C(N)Nc1ccc(C(=O)O)cc1 , which is 0.0192

---

- particulars: in n-pentanol, 301.75 K
measured.property: solubility (mole fraction)
Form field (numeric): enter value without unit.

solubility (mole fraction) measured on Cl.N=C(N)Nc1ccc(C(=O)O)cc1 = 0.0008

---

- particulars: in ethanol, 305.95 K
measured.property: solubility (mole fraction)
The answer should be a number; do not append a unit.

Sure, the documented solubility (mole fraction) for Cl.N=C(N)Nc1ccc(C(=O)O)cc1 is 0.00343
